Test: Selectivity for human melanocortin 3 receptor over melanocortin 5 receptor expressed in CHO cells; control 6 nM
Format: cell-based
Exercise: state measured Selectivity for each of the molecules provided.

Lookup: Form field: reported Selectivity of CC(C)(C)NC(=O)C1(C2CCCCC2)CCN(C(=O)[C@@H](Cc2ccc(F)cc2)NC(=O)[C@@H]2CNC3(CC3)CN2)CC1
Found: 61

Lookup: Another molecule: CC(C)(C)NC(=O)C1(C2CCCCC2)CCN(C(=O)[C@@H](Cc2ccc(F)cc2)NC(=O)[C@@H]2CN[C@@H](C3CC3)CN2)CC1
Found: 59

Lookup: And what about the molecule CC[C@H]1CN[C@H](C(=O)N[C@H](Cc2ccc(F)cc2)C(=O)N2CCC(C(=O)NC(C)(C)C)(C3CCCCC3)CC2)CN1 ?
Found: 126

Lookup: Query CC(C)(C)NC(=O)C1(C2CCCCC2)CCN(C(=O)[C@@H](Cc2ccc(F)cc2)NC(=O)[C@@H]2CN[C@H](C(C)(C)C)CN2)CC1 next
Found: 26

###

Target: Melanocortin receptor 5 (Homo sapiens, UniProt P33032)
Sequence (P33032 whole entry): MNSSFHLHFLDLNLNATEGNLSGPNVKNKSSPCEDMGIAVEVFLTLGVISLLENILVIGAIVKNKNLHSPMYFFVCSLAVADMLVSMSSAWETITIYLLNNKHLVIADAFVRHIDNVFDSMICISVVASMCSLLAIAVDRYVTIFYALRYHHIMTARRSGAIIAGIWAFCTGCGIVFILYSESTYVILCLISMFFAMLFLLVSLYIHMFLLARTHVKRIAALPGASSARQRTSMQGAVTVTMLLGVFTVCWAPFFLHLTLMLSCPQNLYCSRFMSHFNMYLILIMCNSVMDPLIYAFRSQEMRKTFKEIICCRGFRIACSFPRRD
Conditions: at 10 µM
Answer each item with its documented Accumulation.
Respond with the bare value in %.

Lookup: Need Accumulation of CC(C)(C)NC(=O)C1(C2CCCCC2)CCN(C(=O)[C@@H](Cc2ccc(F)cc2)NC(=O)[C@@H]2CN[C@@H](C(C)(C)C)CN2)CC1 , thanks.
Found: 46

Lookup: # iterate: CC[C@@H]1CN[C@H](C(=O)N[C@H](Cc2ccc(F)cc2)C(=O)N2CCC(C(=O)NC(C)(C)C)(C3CCCCC3)CC2)CN1C
Found: 36

Lookup: Now give it for CC(C)(C)NC(=O)C1(C2CCCCC2)CCN(C(=O)[C@@H](Cc2ccc(F)cc2)NC(=O)[C@@H]2CN[C@@H](C3CC3)CN2)CC1 too.
Found: 44

Lookup: Next compound up: CC(C)(C)NC(=O)C1(C2CCCCC2)CCN(C(=O)[C@@H](Cc2ccc(F)cc2)NC(=O)[C@@H]2CN[C@H](C(C)(C)C)CN2)CC1
Found: 54

Lookup: Try this compound too: CC(C)(C)NC(=O)C1(C2CCCCC2)CCN(C(=O)[C@@H](Cc2ccc(F)cc2)NC(=O)[C@@H]2CN[C@H](C3(C)CC3)CN2)CC1
Found: 56

Lookup: Try this compound next: CC[C@H]1CN[C@H](C(=O)N[C@H](Cc2ccc(F)cc2)C(=O)N2CCC(C(=O)NC(C)(C)C)(C3CCCCC3)CC2)CN1
Found: 43

Lookup: Now consider CC(C)C1CNC[C@@H](C(=O)N[C@H](Cc2ccc(F)cc2)C(=O)N2CCC(C(=O)NC(C)(C)C)(C3CCCCC3)CC2)N1 (stereo not given in full) and answer again.
Found: 10

Lookup: Now try CC(C)[C@H]1CN[C@H](C(=O)N[C@H](Cc2ccc(F)cc2)C(=O)N2CCC(C(=O)NC(C)(C)C)(C3CCCCC3)CC2)CN1 .
Found: 49

Lookup: Now this one: C[C@H]1CN[C@H](C(=O)N[C@H](Cc2ccc(F)cc2)C(=O)N2CCC(C(=O)NC(C)(C)C)(C3CCCCC3)CC2)CN1
Found: 42

Lookup: Same question, CC[C@H]1CN[C@H](C(=O)N[C@H](Cc2ccc(F)cc2)C(=O)N2CCC(C(=O)NC(C)(C)C)(C3CCCCC3)CC2)CN1C this time
Found: 56

Lookup: # iterate: CC(C)(C)NC(=O)C1(C2CCCCC2)CCN(C(=O)[C@@H](Cc2ccc(F)cc2)NC(=O)[C@@H]2CNC3(CC3)CN2)CC1
Found: 36

Lookup: Entry to check: CC(C)(C)NC(=O)C1(C2CCCCC2)CCN(C(=O)[C@@H](Cc2ccc(F)cc2)NC(=O)[C@@H]2CN[C@@H](C3(C)CC3)CN2)CC1
Found: 62

Lookup: Now consider CC[C@@H]1CN[C@H](C(=O)N[C@H](Cc2ccc(F)cc2)C(=O)N2CCC(C(=O)NC(C)(C)C)(C3CCCCC3)CC2)CN1 .
Found: 45

Lookup: Next compound up: CC(C)(C)NC(=O)C1(C2CCCCC2)CCN(C(=O)[C@@H](Cc2ccc(F)cc2)NC(=O)[C@@H]2CN[C@H](C3CC3)CN2)CC1.CC(F)(F)C(=O)O
Found: 33

Lookup: CC(C)[C@@H]1CN[C@H](C(=O)N[C@H](Cc2ccc(F)cc2)C(=O)N2CCC(C(=O)NC(C)(C)C)(C3CCCCC3)CC2)CN1 ?
Found: 41
